assay-system: MBR (Rattus norvegicus, UniProt P16257)
assay-method-text: Receptor binding experiment ([3H]PK11195 competition binding)
conditions-used: rat brain membrane preparation, [3H]PK11195 0.5 or 1 nmol/L; Ki calculated by Cheng and Prusoff formula from KD value and IC50
pKi: −log10 of the molar value.
value-type: pKi

# compound, assay-system, test-result
measured = [
    ("O=C1N(c2ccccc2)CCC12CCCN(S(=O)(=O)c1ccccc1)C2 (centres unmarked)", "MBR (Rattus norvegicus, UniProt P16257)", 6.64),
    ("COc1ccc(S(=O)(=O)N2CCCC3(CCN(c4ccc(Cl)cc4)C3=O)C2)cc1 (centres unmarked)", "MBR (Rattus norvegicus, UniProt P16257)", 7.40),
]
